# protocol_details: Permeability across human Caco2 cells at pH 7.4
# Assay type: ADME, cell-based
# experimental_parameters: Caco-2, pH 7.4, read-out: permeability
measured_parameter: Papp (×10⁻⁶ cm/s)

Example molecules with recorded Papp:
{"compound": "Cn1c(-c2ccncc2)c(C2CCCC2)c2ccc(C(=O)NC3(C(=O)Nc4ccc(/C=C/C(=O)O)cc4)CCC3)cc21", "u": "×10⁻⁶ cm/s", "Papp": 2.9}
{"compound": "Cn1c(-c2ccccn2)c(C2CCCC2)c2ccc(C(=O)NC(C)(C)C(=O)Nc3ccc(/C=C/C(=O)O)cc3)cc21", "u": "×10⁻⁶ cm/s", "Papp": 6.5}
{"compound": "Cn1c(-c2ccccn2)c(C2CCCC2)c2ccc(C(=O)NC3(C(=O)Nc4ccc(/C=C/C(=O)O)cc4)CCC3)cc21", "u": "×10⁻⁶ cm/s", "Papp": 11.2}
{"compound": "Cn1c(-c2ccc(Cl)cn2)c(C2CCCC2)c2ccc(C(=O)NC(C)(C)C(=O)Nc3ccc(/C=C/C(=O)O)cc3)cc21", "u": "×10⁻⁶ cm/s", "Papp": 1.8}
{"compound": "Cn1c(-c2ccccn2)c(C2CCCC2)c2ccc(C(=O)NC3(C(=O)Nc4ccc(/C=C/C(=O)O)cc4)CCCC3)cc21", "u": "×10⁻⁶ cm/s", "Papp": 12.6}
{"compound": "Cn1c(-c2cccc(N)n2)c(C2CCCC2)c2ccc(C(=O)NC3(C(=O)Nc4ccc(/C=C/C(=O)O)cc4)CCC3)cc21", "u": "×10⁻⁶ cm/s", "Papp": 1.8}

A. Cn1c(-c2cnccn2)c(C2CCCC2)c2ccc(C(=O)NC3(C(=O)Nc4ccc(/C=C/C(=O)O)cc4)CCC3)cc21
B. Cn1c(-c2ccncc2)c(C2CCCC2)c2ccc(C(=O)NC3(C(=O)Nc4ccc(/C=C/C(=O)O)cc4)CCCC3)cc21
(Q) Between the entries labelled A and B , which has a larger Papp value on record? Give the chosen item's label as your response.
(A) A
(A: 10 ×10⁻⁶ cm/s, B: 0.8 ×10⁻⁶ cm/s)

* * *

# protocol_details: Cmax in rhesus monkey at 10 mg/kg, po
# Type: ADME, organism-based, Macaca mulatta
# Parameters: dose 10 mg/kg, route oral
# experimental_parameters: in vivo
measured_parameter: Cmax (µM)
Number in µM, nothing else.

(Q) State the recorded Cmax for this entry: Cn1c(-c2ccccn2)c(C2CCCC2)c2ccc(C(=O)NC3(C(=O)Nc4ccc(/C=C/C(=O)O)cc4)CCC3)cc21 [BILB-1941]
(A) 6.4

* * *

# protocol_details: AUC in rat at 10 mg/kg, po
# Format: ADME, organism-based
# Set-up: dose 10 mg/kg, route oral
# experimental_parameters: plasma
measured_parameter: AUC (µM·h)

Example molecules with recorded AUC:
{"compound": "Cn1c(-c2cnccn2)c(C2CCCC2)c2ccc(C(=O)NC3(C(=O)Nc4ccc(/C=C/C(=O)O)cc4)CCC3)cc21", "AUC [µM·h]": 17.7}
{"compound": "Cn1c(-c2ccccn2)c(C2CCCC2)c2ccc(C(=O)NC(C)(C)C(=O)Nc3ccc(/C=C/C(=O)O)cc3)cc21", "AUC [µM·h]": 7.2}

A. Cn1c(-c2cccc(N)n2)c(C2CCCC2)c2ccc(C(=O)NC3(C(=O)Nc4ccc(/C=C/C(=O)O)cc4)CCC3)cc21
B. Cn1c(-c2ccccn2)c(C2CCCC2)c2ccc(C(=O)NC3(C(=O)Nc4ccc(/C=C/C(=O)O)cc4)CCC3)cc21
(Q) Between the entries labelled A and B , which has a larger AUC value on record? Give the chosen item's label as your response.
(A) B
(B: 22.7 µM·h, A: 8.4 µM·h)
